# maps each entry to its melting point

Known results for molecules:
molecule: COc1ccc(OC)c(C(=O)/C=C/c2ccc3c(c2)OCO3)c1
melting point: 101 °C
--
molecule: CCC(O)(CCCCO)C(=O)Nc1ccnc(Br)c1 (stereo not given)
melting point: 103 °C
--
molecule: COC(=O)C1=C(C)NC(C)=C(C(=O)OCCN2CCN(C(c3ccc(F)cc3)c3ccc(F)cc3)CC2)C1c1cccc([N+](=O)[O-])c1 (stereo not given)
melting point: 68 to 72 °C
--
molecule: O=S1c2ccccc2-c2[nH]nc(-c3ccccc3)c21 (stereo not given)
melting point: 222 to 224 °C
--
molecule: CCOC(=O)CC(=O)c1ccc(C)nn1
melting point: 79 °C

Recorded melting point of O=C1[C@H](CC[C@H](O)c2ccc(F)cc2)[C@@H](c2ccc(O)c(-c3ccccc3)c2)N1c1ccc(F)cc1 , please.
113 °C

Recorded melting point of COCCOCc1nn2c(-c3ccc(OC)cc3)nnc2c2ccccc12 , please.
129 to 131 °C

Recorded melting point of CC1(C)Oc2ccc(C#N)cc2[C@@H](N2CCN(c3ccccc3)C2=O)[C@@H]1O (relative stereo) , please.
205 to 206 °C

Recorded melting point of Clc1ccc(C=Cc2nc(CNc3ccc(CCCCn4ccnn4)cc3)co2)cc1Cl , please.
76.8 to 78.8 °C

Recorded melting point of COC(=O)C(N)Cc1ccc(OCCN(C)c2nc3ccccc3o2)cc1 (stereo not given) , please.
95 to 96 °C

---

experimental-readout: melting point

Known results for molecules:
molecule: CN1COc2cc(CCCN3CCOCC3)cnc21
experimental-readout: melting point
endpoint-result: < 80 °C
//
molecule: COc1ccc(-n2c(CF)nc3ccc([N+](=O)[O-])cc3c2=O)c(C)c1
experimental-readout: melting point
endpoint-result: 190 to 192 °C
//
molecule: O=S(=O)(Nc1cccc(CCOCc2csc(-c3ccc(C(F)(F)F)cn3)n2)c1)C(F)(F)F
experimental-readout: melting point
endpoint-result: 116 to 117 °C
//
molecule: NCC(c1ccc(F)cc1)C1CCCCC1O (mixture of isomers)
experimental-readout: melting point
endpoint-result: 75 to 76 °C
//
molecule: Cn1c(OCc2ccccc2)noc1=O
experimental-readout: melting point
endpoint-result: 80 to 83 °C
//
molecule: CCCN1CCN(C(=O)C(Cl)Cl)CC1
experimental-readout: melting point
endpoint-result: 88 °C
//
molecule: Fc1ccc(Cn2c(NC3CCN(C4CCCN(Cc5ccccc5)C4)CC3)nc3ccccc32)cc1 (stereo unspecified)
experimental-readout: melting point
endpoint-result: 175 °C
//
molecule: C#CCn1c(-c2cc(Cl)nc(Cl)c2)nc(CC)c(OC)c1=O
experimental-readout: melting point
endpoint-result: 112 to 115 °C
//
molecule: COc1cc(Nc2c(C#N)cnc3cc(Oc4ccncc4)c(OC)cc23)c(Cl)cc1Cl
experimental-readout: melting point
endpoint-result: 267 to 269 °C
//
molecule: COc1ccc(N2CCN(c3c(C)c(C)c4c(c3C)C(O)(Cc3ccccc3)C(C)(C)O4)CC2)cc1 (stereo unspecified)
experimental-readout: melting point
endpoint-result: 152 to 153 °C

Recorded melting point of N#Cc1ccc(S(=O)(=O)n2ccc3ccccc32)cc1C#N , please.
171 to 173 °C

Recorded melting point of CN(CC(=O)C(CCCCN)NC(=O)c1ccccc1)C(=O)N1CCCC1C(=O)O (stereo unspecified) , please.
130 to 133 °C

Recorded melting point of CC1CCCN(Cc2cccc(OCCCCNc3nnc(N)s3)c2)C1 (stereo unspecified) , please.
123 to 124 °C

---

experimental-readout: melting point

Known results for compounds:
compound: CC(C)N(C[C@@H](O)[C@@H](C(=O)[C@H](CC(N)=O)NC(=O)c1ccccc1)C(N)c1ccccc1)NC(=O)OC(C)(C)C (some centres undefined)
experimental-readout: melting point
endpoint-result: 182 to 185 °C

compound: CCOC(=O)COc1ccc(C(=O)c2ccccc2O)c(Cl)c1Cl
experimental-readout: melting point
endpoint-result: 108 to 110 °C

compound: COC(=O)[C@H]1[C@H](NC(C)=O)C(=O)O[C@@H]1C
experimental-readout: melting point
endpoint-result: 105 to 106 °C

compound: Cc1cccc(Cl)c1NC(=O)Nc1cc(N[C@H]2CC[C@H](O[Si](C)(C)C(C)(C)C)CC2)ncn1
experimental-readout: melting point
endpoint-result: 218 to 220 °C

compound: O=[N+]([O-])c1c(Cl)sc(Cl)c1S(=O)(=O)Cl
experimental-readout: melting point
endpoint-result: 89 to 91 °C

compound: O=[N+]([O-])c1ccc2c(c1)CCN(C[C@H](O)C(F)(F)F)CC2
experimental-readout: melting point
endpoint-result: 82 to 85 °C

compound: CCCCc1ccc(OC)c(-c2csc(N)n2)c1
experimental-readout: melting point
endpoint-result: 48 °C

compound: COn1nnc2ccc(Cn3ccnc3)cc21
experimental-readout: melting point
endpoint-result: 132 °C

compound: Cc1ccc(S(=O)(=O)N2CCC[C@H]2C(=O)N[C@@H](Cc2ccc(NC(=S)NCCN3CCCCC3)cc2)C(=O)O)cc1
experimental-readout: melting point
endpoint-result: 148 to 158 °C

compound: Cc1sc(-c2ccccc2)nc1COc1ccc(C#N)cn1
experimental-readout: melting point
endpoint-result: 124 to 125 °C

Recorded melting point of CC(=O)Nc1ccc(C(=O)NC(C)(C)C)cc1 , please.
119 to 121 °C

---

# maps each entry to its melting point

Known results for molecules:
molecule: O=C(CC1CSCCC1=O)c1ccccc1 (stereo unspecified)
melting point: 102 to 104 °C

molecule: COc1ccc(CN2c3ncccc3NC(=O)c3cccnc32)cc1
melting point: 209 to 210 °C

molecule: c1cc(-c2cc(C3CC3)on2)ccn1
melting point: 76 to 80 °C

molecule: CC1=C(C#N)C(=C(C#N)C#N)OC1(C)c1ccc(Cl)cc1Cl (stereo unspecified)
melting point: 239 to 240 °C

molecule: C=CCN(Cc1cc(Br)ccc1OCc1ccccc1)c1ccc(C(=O)O)nn1
melting point: 135 to 136 °C

Recorded melting point of CCCC(Cl)(Cl)C(NC(=O)c1ccc(Cl)cc1)NC(=N[N+](=O)[O-])Nc1cccnc1 (stereo unspecified) , please.
198 to 200 °C

---

experimental-readout: melting point

Known results for molecules:
smiles-data: Cc1cc(OCc2ccc(-c3ccccc3-c3nnn(C(c4ccccc4)(c4ccccc4)c4ccccc4)n3)cc2)c(CO)c(C)n1
melting point: 68 to 70 °C
--
smiles-data: COC(=O)C=CN1CCN(c2cccc(-n3cnc4cc(-c5ccoc5)ccc43)c2)CC1
melting point: 168 to 171 °C
--
smiles-data: O=C(Nc1cccc(C(F)(F)F)c1)N1CCc2cc(Oc3cc(Cl)ncn3)ccc21
melting point: 181 °C
--
smiles-data: COc1cc2c(cc1O)CCCN(Cc1ccccc1OC)C2
melting point: 136 to 137 °C

Could you now look at the following molecule, please?
Recorded melting point of Cn1c(C(F)(F)F)c(C#N)c2cc(Cl)ccc21 , please.
166 to 168 °C

---

# maps each entry to its melting point

Known results for molecules:
molecule: CC(C)(C)c1ccc(P2Oc3ccccc3-c3ccccc32)cc1 (stereo not given)
endpoint-result: 90 to 92 °C

molecule: CCOc1ccc(-c2ccc3c(c2)C=C(C(=O)OC)CCN3)cc1OCC
endpoint-result: 159 to 164 °C

molecule: NS(=O)(=O)c1cccc2c1COC2
endpoint-result: 153 to 158 °C

molecule: COC(=O)CN(CC(=O)OC)c1cc(O)cc(O)c1
endpoint-result: 200 to 202 °C

molecule: C=C1SC(=O)N(c2ccc3cc(-c4ccc(O)c(C56CC7CC(CC(C7)C5)C6)c4)ccc3c2)C1=O
endpoint-result: 299 to 302 °C

Recorded melting point of CCCS(=O)(=O)NC(=N[N+](=O)[O-])NCc1cnc(Cl)s1 , please.
105 to 107 °C

Recorded melting point of CCC(C)(Cc1cn(C)c2ccc(OC)cc12)[N+](=O)[O-] (stereo not given) , please.
95 to 96 °C

Recorded melting point of NC(=CC(=O)[C@H](Cc1ccccc1)N(Cc1ccccc1)Cc1ccccc1)Cc1ccccc1 , please.
101 to 102 °C

Recorded melting point of CCc1noc(-c2cn(-c3ccc(OCc4ccccc4)cc3)cn2)n1 , please.
171 to 172 °C

Recorded melting point of CC(C)(C)NC(=O)C1CCC(c2ccccc2)N1C(=O)CNC(=O)OC(C)(C)C (stereo not given) , please.
117 °C

---

experimental-readout: melting point

molecule: O=C(NCC(=O)N(c1ccccc1)c1ccccc1)c1ccc2ccccc2c1
melting point: 205 °C
--
molecule: CCC(=CC(CSc1nc2ccccc2s1)=NO)C(C)[N+](=O)[O-] (stereo unspecified)
melting point: 102 to 103 °C
--
molecule: CCCCNC(P(=O)(O)O)P(=O)(O)O
melting point: 188 to 189 °C
--
molecule: COCCNC(=O)c1cccc(-c2cccc3cc(Cc4cc(F)cc(F)c4)sc23)c1
melting point: 96 to 97 °C
--
molecule: CC(=O)OCC(=O)C1(O)C(C)CC2C3CCC4CC(=O)CCC4(C)C3CCC21C (stereo unspecified)
melting point: 125 °C
--
molecule: CCOC(=O)Cn1cc(C(=O)O)c2nc3c(C)cccc3cc2c1=O
melting point: 277 to 280 °C
--
molecule: NC(=O)CC(O)COC(c1ccccc1)(c1ccccc1)c1ccccc1 (stereo unspecified)
melting point: 59 to 60 °C
--
molecule: Cc1nc2ccccc2n1-c1ccccn1
melting point: 121 to 123 °C

Recorded melting point of COc1cc(Oc2cccc(SC(F)(F)F)c2)nc(C(=O)NC(C)C)c1 , please.
70 to 76 °C

Recorded melting point of O=C1N(c2cc(Cl)cc(Cl)c2)C(=O)C2(Cc3ccc(-c4cccnc4)cc3)CCCCN12 (stereo unspecified) , please.
276 °C

Recorded melting point of CN(Cc1ccc(-c2ccc(O)c(Br)c2)cc1)C(=O)c1cn(Cc2ccccc2)c2ccccc12 , please.
164 to 170 °C

Recorded melting point of CC(C)(C)OC(=O)N[C@@H](CC1CCCCC1)[C@@H]1C[C@@H](C2(O)CCCCC2)C(=O)O1 , please.
133 to 134 °C

Recorded melting point of N#CC(=NO)c1c(F)cccc1Cl , please.
119 to 120 °C
